Target: UniProtKB P03372
Sequence (P03372 1-595): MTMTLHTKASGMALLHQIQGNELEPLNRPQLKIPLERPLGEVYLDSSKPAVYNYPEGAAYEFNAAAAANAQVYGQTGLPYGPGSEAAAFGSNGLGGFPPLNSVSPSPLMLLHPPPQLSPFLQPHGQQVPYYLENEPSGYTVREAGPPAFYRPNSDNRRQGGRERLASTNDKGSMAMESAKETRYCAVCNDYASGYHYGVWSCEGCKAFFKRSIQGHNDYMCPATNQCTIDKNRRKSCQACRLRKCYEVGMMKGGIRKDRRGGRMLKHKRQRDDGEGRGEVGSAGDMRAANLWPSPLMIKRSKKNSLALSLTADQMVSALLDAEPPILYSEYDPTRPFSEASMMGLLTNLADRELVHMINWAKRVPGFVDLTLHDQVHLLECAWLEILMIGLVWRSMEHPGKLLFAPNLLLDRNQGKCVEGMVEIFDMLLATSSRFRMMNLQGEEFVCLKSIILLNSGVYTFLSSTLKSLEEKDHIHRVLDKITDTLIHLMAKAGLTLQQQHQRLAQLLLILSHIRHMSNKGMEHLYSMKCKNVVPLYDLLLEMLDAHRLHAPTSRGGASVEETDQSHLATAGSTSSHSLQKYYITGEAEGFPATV
Assay: antagonistic activity in CHO cells co-transfected with hERα, rat oxytocin promoter and luciferase reporter gene
Type: cell-based
Settings: antagonism of 17β-estradiol-induced transactivation, CHO-hERα-RO-LUC; read-out: ERα pIC50 (converted)
property: IC50 (nM)

Consider the worked cases shown below.
>  <molecule>
Cl.O=C(c1ccc(OC2CN(C3CCC3)C2)cc1)c1c(-c2ccc(O)cc2)sc2cc(O)ccc12 [compound 7l, hydrochloride]

>  <assayed_system>
UniProtKB P03372

>  <IC50, nM>
0.794

$$$$
>  <molecule>
CCCN1CC(Oc2ccc(C(=C(CC)c3ccccc3)c3ccc(O)cc3)cc2)C1 (mixture of isomers)

>  <assayed_system>
UniProtKB P03372

>  <IC50, nM>
0.501

$$$$
>  <molecule>
CCCN1CC(Oc2ccc([C@H]3C[C@]4(C)[C@@H](O)CC[C@H]4[C@@H]4CCc5cc(O)ccc5C34)cc2)C1 (stereo partly shown)

>  <assayed_system>
UniProtKB P03372

>  <IC50, nM>
2.51

$$$$

A = Cl.Oc1ccc(-c2onc(-c3ccccc3Cl)c2-c2ccc(OC3CN(CC4CC4)C3)cc2)cc1 [compound 7y, hydrochloride]
B = CCCN1CC(Oc2ccc(-c3c(-c4ccccc4CC)noc3-c3ccc(O)cc3)cc2)C1.O=C(O)C(F)(F)F [compound 7ad, 2,2,2-trifluoroacetate]
Exercise: Pick one: A or B . Which has the bigger IC50 number? Could you answer with the label of the item you picked?
Key: B
(B: 1 nM, A: 0.316 nM)

1 = CCCN1CC(Oc2ccc(-c3c(-c4ccccc4Cl)noc3-c3ccc(O)c(C)c3)cc2)C1 [compound 6l, 2,2,2-trifluoroacetate]
2 = CC(C)CN1CC(Oc2ccc(C(=O)c3c(-c4ccc(O)cc4)sc4cc(O)ccc34)cc2)C1.Cl [compound 7m, hydrochloride]
3 = CCCN1CC(Oc2ccc(-c3c(-c4c(C)cccc4Cl)noc3-c3ccc(O)cc3)cc2)C1.O=C(O)C(F)(F)F [compound 7ab, 2,2,2-trifluoroacetate]
4 = CCCN1CC(Oc2ccc([C@H]3c4ccc(O)cc4OC(C)(C)[C@@H]3c3ccccc3)cc2)C1.O=C(O)C(F)(F)F [compound 6p, 2,2,2-trifluoroacetate]
Exercise: List these items ordered by IC50, big to small. Response format: the labels, sorted as the prompt asks.
Key: 4, 2, 1, 3

a = CCCN1CC(Oc2ccc(C(=O)c3c(-c4ccccc4C)nsc3-c3ccc(O)cc3)cc2)C1.Cl [compound 7bb, hydrochloride]
b = Cl.Oc1ccc(-c2onc(-c3ccccc3Cl)c2-c2ccc(OC3CN(CC4CCOC4)C3)cc2)cc1 (stereo not shown) [compound 7x, hydrochloride]
c = CC(C)CN1CC(Oc2ccc(-c3c(-c4ccccc4Cl)noc3-c3ccc(O)cc3)cc2)C1.Cl [compound 7w, hydrochloride]
Exercise: Order each entry by recorded IC50, climbing from the minimum. Response format: the labels, sorted as the prompt asks.
Key: c, b, a
